Numbers sourced from ChEMBL document CHEMBL1132855.

Overview of reported pIC50 across a group of compounds:
assay system: Growth hormone secretagogue receptor type 1 (Homo sapiens)
Sequence (Q92847 whole entry): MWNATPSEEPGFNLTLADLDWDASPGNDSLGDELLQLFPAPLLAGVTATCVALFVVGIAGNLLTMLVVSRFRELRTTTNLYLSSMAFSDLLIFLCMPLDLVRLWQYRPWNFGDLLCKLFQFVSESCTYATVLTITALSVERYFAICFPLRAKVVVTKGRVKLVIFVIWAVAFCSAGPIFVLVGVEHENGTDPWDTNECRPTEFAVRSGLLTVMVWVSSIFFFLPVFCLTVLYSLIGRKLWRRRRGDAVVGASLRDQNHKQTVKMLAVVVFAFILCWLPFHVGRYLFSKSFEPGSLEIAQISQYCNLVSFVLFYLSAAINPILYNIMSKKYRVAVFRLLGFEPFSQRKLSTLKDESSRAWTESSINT
experiment description: Binding affinity for human growth hormone GH secretagogue (hGHsr) receptor
Quick note: pIC50 means taking -log10 of the concentration in moles per liter.

# annotated cases, reported pIC50 shown
For CN1N=C2CCN(C(=O)[C@@H](COCc3ccccc3)NC(=O)C(C)(C)N)C[C@@]2(Cc2ccccc2)C1=O [CAPROMORELIN] , what is its reported pIC50?
5.52

And the next one, COC(=O)C(CCCCN)NC(=O)Cn1c(-c2ccc3ccccc3c2)nc2ccc(Cl)cc2c1=O (stereo not given) ?
5.46

And the next one, `NCCCCCNC(=O)Cn1c(-c2ccc3ccccc3c2)nc2ccc(Br)cc2c1=O` ?
5.85

And the next one, `NCCCCCNC(=O)Cn1c(CCc2ccccc2)nc2ccc(Br)cc2c1=O` ?
6.47

And the next one, `NCCCCCCNC(=O)Cn1c(CCc2ccccc2)nc2ccc(Br)cc2c1=O` ?
7.17

***
For `NCCCCCCNC(=O)Cn1c(CCc2ccccc2)nc2ccc(-c3ccccc3)cc2c1=O` , what is its reported pIC50?
7.80

And the next one, `NCCCCCCNC(=O)Cn1c(-c2ccc3ccccc3c2)nc2ccc(-c3ccccc3)cc2c1=O` ?
6.70

And the next one, `NCCCCCCNC(=O)Cn1c(-c2ccc3ccccc3c2)nc2ccc(Br)cc2c1=O` ?
6.02

And the next one, `NCCCCCNC(=O)Cn1c(-c2ccc3ccccc3c2)nc2ccc(-c3ccccc3)cc2c1=O` ?
6.47

And the next one, `NCCCCCNC(=O)Cn1c(CCc2ccccc2)nc2ccc(-c3ccccc3)cc2c1=O` ?
7.32
